src = ChEMBL document CHEMBL1145288

- assayed-system: Cytochrome P450 2C19 (Homo sapiens, UniProt P33261)
- Sequence (P33261 whole entry): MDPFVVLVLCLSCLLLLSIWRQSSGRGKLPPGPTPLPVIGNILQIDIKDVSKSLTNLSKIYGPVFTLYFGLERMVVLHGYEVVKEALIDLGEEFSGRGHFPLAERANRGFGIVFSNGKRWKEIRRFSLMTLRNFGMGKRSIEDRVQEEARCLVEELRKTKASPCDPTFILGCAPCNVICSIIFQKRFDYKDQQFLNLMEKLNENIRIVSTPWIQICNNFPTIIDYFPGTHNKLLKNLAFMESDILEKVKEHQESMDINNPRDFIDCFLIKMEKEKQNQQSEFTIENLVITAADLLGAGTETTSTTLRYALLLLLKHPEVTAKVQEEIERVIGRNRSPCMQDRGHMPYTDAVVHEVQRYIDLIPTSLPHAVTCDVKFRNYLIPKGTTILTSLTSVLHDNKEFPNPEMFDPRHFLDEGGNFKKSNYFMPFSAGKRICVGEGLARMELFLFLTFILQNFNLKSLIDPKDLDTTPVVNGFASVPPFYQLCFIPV
assay-readout: pIC50
For clarity, pIC50 is expressed as the negative log10 of concentration in mol/L.

[[record]]
smiles_repr = "CC(=O)c1ccc(-c2cccnc2)s1"
assayed_system = "Cytochrome P450 2C19 (Homo sapiens, UniProt P33261)"
reported_measurement = 4.20


Now for another entry.
What does the record list as pIC50 for `O/N=C\c1ccc(-c2cccnc2)o1` ?
3.55

---

- assayed-system: Cytochrome P450 2D6 (Homo sapiens, UniProt P10635)
- Sequence (P10635 whole entry): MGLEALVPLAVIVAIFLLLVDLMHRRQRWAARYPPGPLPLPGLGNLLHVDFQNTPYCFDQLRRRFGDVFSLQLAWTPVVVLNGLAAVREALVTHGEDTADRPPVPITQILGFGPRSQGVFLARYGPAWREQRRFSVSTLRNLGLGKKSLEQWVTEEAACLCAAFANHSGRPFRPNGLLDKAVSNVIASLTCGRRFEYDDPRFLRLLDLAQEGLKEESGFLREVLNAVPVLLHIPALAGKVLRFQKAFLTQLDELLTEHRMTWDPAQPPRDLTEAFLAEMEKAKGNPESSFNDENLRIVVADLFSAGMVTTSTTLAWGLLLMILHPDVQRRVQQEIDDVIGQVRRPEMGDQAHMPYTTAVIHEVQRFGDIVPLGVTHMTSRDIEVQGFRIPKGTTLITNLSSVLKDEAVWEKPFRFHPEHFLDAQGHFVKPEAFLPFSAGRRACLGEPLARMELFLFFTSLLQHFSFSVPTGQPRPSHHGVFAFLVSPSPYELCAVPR
assay-readout: IC50

[[record]]
smiles_repr = "O/N=C/c1ccc(-c2cccnc2)o1.O/N=C\\c1ccc(-c2cccnc2)o1"
assayed_system = "Cytochrome P450 2D6 (Homo sapiens, UniProt P10635)"
assay_readout = "IC50"
reported_measurement = "> 400 µM"

[[record]]
smiles_repr = "c1cncc(-c2cccnc2)c1"
assayed_system = "Cytochrome P450 2D6 (Homo sapiens, UniProt P10635)"
assay_readout = "IC50"
reported_measurement = "> 300 µM"

[[record]]
smiles_repr = "O/N=C\\c1ccc(-c2cccnc2)o1"
assayed_system = "Cytochrome P450 2D6 (Homo sapiens, UniProt P10635)"
assay_readout = "IC50"
reported_measurement = "> 400 µM"


Now for another entry.
What does the record list as IC50 for `O/N=C/c1ccc(-c2cccnc2)o1` ?
> 400 µM

---

IC50 tested on UniProt P05181: recorded values
Sequence (P05181 whole entry): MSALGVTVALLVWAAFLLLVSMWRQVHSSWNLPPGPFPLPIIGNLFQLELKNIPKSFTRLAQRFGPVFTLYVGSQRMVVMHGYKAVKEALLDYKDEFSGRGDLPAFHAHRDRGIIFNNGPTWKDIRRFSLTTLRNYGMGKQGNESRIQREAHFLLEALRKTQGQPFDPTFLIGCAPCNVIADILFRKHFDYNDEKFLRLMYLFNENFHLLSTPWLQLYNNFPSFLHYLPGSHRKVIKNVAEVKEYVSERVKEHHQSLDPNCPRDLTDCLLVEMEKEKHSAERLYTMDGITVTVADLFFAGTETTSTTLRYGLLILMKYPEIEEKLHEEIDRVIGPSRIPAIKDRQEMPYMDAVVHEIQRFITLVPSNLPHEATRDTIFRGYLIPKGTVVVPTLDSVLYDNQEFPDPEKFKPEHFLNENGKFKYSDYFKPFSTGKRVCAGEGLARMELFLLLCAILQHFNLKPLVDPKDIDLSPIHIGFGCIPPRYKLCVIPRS

What does the record list as IC50 for `CC(=O)c1ccc(-c2cccnc2)s1` ?
> 400 µM

Here is the next compound: `c1cncc(-c2ccsc2)c1`
> 400 µM

Here is the next compound: `c1cncc(-c2cccnc2)c1`
> 300 µM

Here is the next compound: `O/N=C/c1ccc(-c2cccnc2)o1`
> 400 µM

Here is the next compound: `O/N=C\c1ccc(-c2cccnc2)o1`
> 400 µM

---

- assayed-system: Cytochrome P450 2C9 (Homo sapiens, UniProt P11712)
- Sequence (P11712 whole entry): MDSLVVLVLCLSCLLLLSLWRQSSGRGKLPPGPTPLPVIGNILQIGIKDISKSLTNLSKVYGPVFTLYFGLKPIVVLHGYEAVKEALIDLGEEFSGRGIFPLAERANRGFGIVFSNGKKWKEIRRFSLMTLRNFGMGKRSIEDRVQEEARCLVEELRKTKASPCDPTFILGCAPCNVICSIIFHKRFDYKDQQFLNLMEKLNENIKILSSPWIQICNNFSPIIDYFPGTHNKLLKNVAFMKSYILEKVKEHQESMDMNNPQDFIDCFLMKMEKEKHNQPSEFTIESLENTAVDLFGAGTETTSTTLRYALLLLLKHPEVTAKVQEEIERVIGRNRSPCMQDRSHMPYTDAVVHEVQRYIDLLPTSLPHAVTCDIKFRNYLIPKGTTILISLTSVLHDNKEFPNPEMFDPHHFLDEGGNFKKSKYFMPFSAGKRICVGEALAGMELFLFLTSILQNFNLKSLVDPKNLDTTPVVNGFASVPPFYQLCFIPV
- experiment-notes: Inhibitory concentration against human cytochrome P-450 2C9
assay-readout: IC50

// worked examples, IC50 included
[[record]]
smiles_repr = "Fc1ccc(-c2ccsc2)cn1"
reported_measurement = "> 400 µM"

[[record]]
smiles_repr = "c1cncc(-c2cccnc2)c1"
reported_measurement = "> 300 µM"


Now for another entry.
GET /values?readout=IC50&system=Cytochrome P450 2C9 (Homo sapiens, UniProt P11712)&item= `Cc1cscc1-c1ccc(F)nc1`
> 400 µM

---

pIC50 values for the compounds below.
- assayed-system: Cytochrome P450 2C19 (Homo sapiens)
For clarity, pIC50 is expressed as the negative log10 of concentration in mol/L.

[[record]]
smiles_repr = "Fc1ccc(-c2ccsc2)cn1"
assay_readout = "pIC50"
reported_measurement = 3.74

[[record]]
smiles_repr = "CCn1cnc(-c2cccnc2)c1"
assay_readout = "pIC50"
reported_measurement = 4.33

[[record]]
smiles_repr = "Cn1cnc(-c2cccnc2)c1"
assay_readout = "pIC50"
reported_measurement = 3.91

[[record]]
smiles_repr = "O/N=C/c1ccc(-c2cccnc2)o1"
assay_readout = "pIC50"
reported_measurement = 3.93

[[record]]
smiles_repr = "C[n+]1c[nH]cc1-c1cccnc1"
assay_readout = "pIC50"
reported_measurement = 3.91

[[record]]
smiles_repr = "c1cncc(-c2ccsc2)c1"
assay_readout = "pIC50"
reported_measurement = 3.95


Now for another entry.
What does the record list as pIC50 for `c1cncc(-c2cccs2)c1` ?
3.75
